enrichment: recorded values
B1: NLV2 TCR alpha chain (CDR3α only) (parent)
chain: AGPMKTSYDKVI

Variants of: B1
test-summary: T-Switch: Jurkat TCRβ−/− cells expressing a CDR3 saturation-mutagenesis library, stained with two peptide-HLA-A*02:01 tetramers (original and novel peptide) plus anti-CD3, FACS-sorted into four gates, gDNA sequenced
test-conditions: with both tetramers (double-positive gate): HLA-A*02:01 with … and with …, tetramers 1 µg/mL, 30 min on ice, SP, DP and SW gates expanded about 10 days between rounds ('two to three rounds of selection' in the Methods), gate DP: higher = more of the variant in the gate that binds both peptides. Fold enrichment of the CDR3 variant in one FACS gate of a two-tetramer stain. SP/DP/SW gates were expanded and re-sorted bef, unresolved parent, parent is a CDR3 fragment, scale: fold enrichment, numbering: sequential-on-construct, sequence starts at 1
measurement-kind: enrichment

[[record]]
mutation_notation = "[…] (CDR3 as printed); M4V derived by comparing it with the table's wild-type CDR3 AGPMKTSYDKVI"
measurement_kind = "enrichment"
meas_value = 0

[[record]]
mutation_notation = "[…] (CDR3 as printed); M4D derived by comparing it with the table's wild-type CDR3 AGPMKTSYDKVI"
measurement_kind = "enrichment"
meas_value = 0

[[record]]
mutation_notation = "[…] (CDR3 as printed); M4Q derived by comparing it with the table's wild-type CDR3 AGPMKTSYDKVI"
measurement_kind = "enrichment"
meas_value = 0

[[record]]
mutation_notation = "[…] (CDR3 as printed); K10F derived by comparing it with the table's wild-type CDR3 AGPMKTSYDKVI"
measurement_kind = "enrichment"
meas_value = 0

[[record]]
mutation_notation = "[…] (CDR3 as printed); A1T derived by comparing it with the table's wild-type CDR3 AGPMKTSYDKVI"
measurement_kind = "enrichment"
meas_value = 0

[[record]]
mutation_notation = "[…] (CDR3 as printed); S7Q derived by comparing it with the table's wild-type CDR3 AGPMKTSYDKVI"
measurement_kind = "enrichment"
meas_value = 0

[[record]]
mutation_notation = "[…] (CDR3 as printed); T6M derived by comparing it with the table's wild-type CDR3 AGPMKTSYDKVI"
measurement_kind = "enrichment"
meas_value = 0

[[record]]
mutation_notation = "[…] (CDR3 as printed); T6S derived by comparing it with the table's wild-type CDR3 AGPMKTSYDKVI"
measurement_kind = "enrichment"
meas_value = 0

[[record]]
mutation_notation = "[…] (CDR3 as printed); V11S derived by comparing it with the table's wild-type CDR3 AGPMKTSYDKVI"
measurement_kind = "enrichment"
meas_value = 0

[[record]]
mutation_notation = "[…] (CDR3 as printed); M4N derived by comparing it with the table's wild-type CDR3 AGPMKTSYDKVI"
measurement_kind = "enrichment"
meas_value = 0

[[record]]
mutation_notation = "[…] (CDR3 as printed); I12M derived by comparing it with the table's wild-type CDR3 AGPMKTSYDKVI"
measurement_kind = "enrichment"
meas_value = 0

[[record]]
mutation_notation = "[…] (CDR3 as printed); Y8R derived by comparing it with the table's wild-type CDR3 AGPMKTSYDKVI"
measurement_kind = "enrichment"
meas_value = 0

[[record]]
mutation_notation = "[…] (CDR3 as printed); I12E derived by comparing it with the table's wild-type CDR3 AGPMKTSYDKVI"
measurement_kind = "enrichment"
meas_value = 0

[[record]]
mutation_notation = "[…] (CDR3 as printed); G2I derived by comparing it with the table's wild-type CDR3 AGPMKTSYDKVI"
measurement_kind = "enrichment"
meas_value = 0

[[record]]
mutation_notation = "[…] (CDR3 as printed); G2H derived by comparing it with the table's wild-type CDR3 AGPMKTSYDKVI"
measurement_kind = "enrichment"
meas_value = 0

[[record]]
mutation_notation = "[…] (CDR3 as printed); Y8F derived by comparing it with the table's wild-type CDR3 AGPMKTSYDKVI"
measurement_kind = "enrichment"
meas_value = 0

[[record]]
mutation_notation = "[…] (CDR3 as printed); Y8C derived by comparing it with the table's wild-type CDR3 AGPMKTSYDKVI"
measurement_kind = "enrichment"
meas_value = 0

[[record]]
mutation_notation = "[…] (CDR3 as printed); S7I derived by comparing it with the table's wild-type CDR3 AGPMKTSYDKVI"
measurement_kind = "enrichment"
meas_value = 0

[[record]]
mutation_notation = "[…] (CDR3 as printed); Y8Q derived by comparing it with the table's wild-type CDR3 AGPMKTSYDKVI"
measurement_kind = "enrichment"
meas_value = 0

[[record]]
mutation_notation = "[…] (CDR3 as printed); Y8P derived by comparing it with the table's wild-type CDR3 AGPMKTSYDKVI"
measurement_kind = "enrichment"
meas_value = 0

[[record]]
mutation_notation = "[…] (CDR3 as printed); K5L derived by comparing it with the table's wild-type CDR3 AGPMKTSYDKVI"
measurement_kind = "enrichment"
meas_value = 0

[[record]]
mutation_notation = "[…] (CDR3 as printed); M4R derived by comparing it with the table's wild-type CDR3 AGPMKTSYDKVI"
measurement_kind = "enrichment"
meas_value = 0

[[record]]
mutation_notation = "[…] (CDR3 as printed); D9S derived by comparing it with the table's wild-type CDR3 AGPMKTSYDKVI"
measurement_kind = "enrichment"
meas_value = 0

[[record]]
mutation_notation = "[…] (CDR3 as printed); D9E derived by comparing it with the table's wild-type CDR3 AGPMKTSYDKVI"
measurement_kind = "enrichment"
meas_value = 0

[[record]]
mutation_notation = "[…] (CDR3 as printed); P3C derived by comparing it with the table's wild-type CDR3 AGPMKTSYDKVI"
measurement_kind = "enrichment"
meas_value = 0

[[record]]
mutation_notation = "[…] (CDR3 as printed); T6I derived by comparing it with the table's wild-type CDR3 AGPMKTSYDKVI"
measurement_kind = "enrichment"
meas_value = 0

[[record]]
mutation_notation = "[…] (CDR3 as printed); V11R derived by comparing it with the table's wild-type CDR3 AGPMKTSYDKVI"
measurement_kind = "enrichment"
meas_value = 0

[[record]]
mutation_notation = "[…] (CDR3 as printed); Y8L derived by comparing it with the table's wild-type CDR3 AGPMKTSYDKVI"
measurement_kind = "enrichment"
meas_value = 0

[[record]]
mutation_notation = "[…] (CDR3 as printed); I12H derived by comparing it with the table's wild-type CDR3 AGPMKTSYDKVI"
measurement_kind = "enrichment"
meas_value = 0

[[record]]
mutation_notation = "[…] (CDR3 as printed); A1P derived by comparing it with the table's wild-type CDR3 AGPMKTSYDKVI"
measurement_kind = "enrichment"
meas_value = 0

[[record]]
mutation_notation = "[…] (CDR3 as printed); M4K derived by comparing it with the table's wild-type CDR3 AGPMKTSYDKVI"
measurement_kind = "enrichment"
meas_value = 0

[[record]]
mutation_notation = "[…] (CDR3 as printed); K10N derived by comparing it with the table's wild-type CDR3 AGPMKTSYDKVI"
measurement_kind = "enrichment"
meas_value = 0

[[record]]
mutation_notation = "[…] (CDR3 as printed); S7M derived by comparing it with the table's wild-type CDR3 AGPMKTSYDKVI"
measurement_kind = "enrichment"
meas_value = 0

[[record]]
mutation_notation = "[…] (CDR3 as printed); K5W derived by comparing it with the table's wild-type CDR3 AGPMKTSYDKVI"
measurement_kind = "enrichment"
meas_value = 0

[[record]]
mutation_notation = "[…] (CDR3 as printed); Y8T derived by comparing it with the table's wild-type CDR3 AGPMKTSYDKVI"
measurement_kind = "enrichment"
meas_value = 0

[[record]]
mutation_notation = "[…] (CDR3 as printed); K10A derived by comparing it with the table's wild-type CDR3 AGPMKTSYDKVI"
measurement_kind = "enrichment"
meas_value = 0

[[record]]
mutation_notation = "[…] (CDR3 as printed); A1I derived by comparing it with the table's wild-type CDR3 AGPMKTSYDKVI"
measurement_kind = "enrichment"
meas_value = 0

[[record]]
mutation_notation = "[…] (CDR3 as printed); P3Y derived by comparing it with the table's wild-type CDR3 AGPMKTSYDKVI"
measurement_kind = "enrichment"
meas_value = 0

[[record]]
mutation_notation = "[…] (CDR3 as printed); A1Y derived by comparing it with the table's wild-type CDR3 AGPMKTSYDKVI"
measurement_kind = "enrichment"
meas_value = 0

[[record]]
mutation_notation = "[…] (CDR3 as printed); K5S derived by comparing it with the table's wild-type CDR3 AGPMKTSYDKVI"
measurement_kind = "enrichment"
meas_value = 0

[[record]]
mutation_notation = "[…] (CDR3 as printed); S7A derived by comparing it with the table's wild-type CDR3 AGPMKTSYDKVI"
measurement_kind = "enrichment"
meas_value = 0

[[record]]
mutation_notation = "[…] (CDR3 as printed); V11C derived by comparing it with the table's wild-type CDR3 AGPMKTSYDKVI"
measurement_kind = "enrichment"
meas_value = 0

[[record]]
mutation_notation = "[…] (CDR3 as printed); P3T derived by comparing it with the table's wild-type CDR3 AGPMKTSYDKVI"
measurement_kind = "enrichment"
meas_value = 0

[[record]]
mutation_notation = "[…] (CDR3 as printed); D9C derived by comparing it with the table's wild-type CDR3 AGPMKTSYDKVI"
measurement_kind = "enrichment"
meas_value = 0

[[record]]
mutation_notation = "[…] (CDR3 as printed); K10S derived by comparing it with the table's wild-type CDR3 AGPMKTSYDKVI"
measurement_kind = "enrichment"
meas_value = 0

[[record]]
mutation_notation = "[…] (CDR3 as printed); K5D derived by comparing it with the table's wild-type CDR3 AGPMKTSYDKVI"
measurement_kind = "enrichment"
meas_value = 0

